System name: c-Met kinase (recombinant c-Met) (Homo sapiens)
Construct: 0.27 nM recombinant c-Met
Sequence (P08581 25-1390): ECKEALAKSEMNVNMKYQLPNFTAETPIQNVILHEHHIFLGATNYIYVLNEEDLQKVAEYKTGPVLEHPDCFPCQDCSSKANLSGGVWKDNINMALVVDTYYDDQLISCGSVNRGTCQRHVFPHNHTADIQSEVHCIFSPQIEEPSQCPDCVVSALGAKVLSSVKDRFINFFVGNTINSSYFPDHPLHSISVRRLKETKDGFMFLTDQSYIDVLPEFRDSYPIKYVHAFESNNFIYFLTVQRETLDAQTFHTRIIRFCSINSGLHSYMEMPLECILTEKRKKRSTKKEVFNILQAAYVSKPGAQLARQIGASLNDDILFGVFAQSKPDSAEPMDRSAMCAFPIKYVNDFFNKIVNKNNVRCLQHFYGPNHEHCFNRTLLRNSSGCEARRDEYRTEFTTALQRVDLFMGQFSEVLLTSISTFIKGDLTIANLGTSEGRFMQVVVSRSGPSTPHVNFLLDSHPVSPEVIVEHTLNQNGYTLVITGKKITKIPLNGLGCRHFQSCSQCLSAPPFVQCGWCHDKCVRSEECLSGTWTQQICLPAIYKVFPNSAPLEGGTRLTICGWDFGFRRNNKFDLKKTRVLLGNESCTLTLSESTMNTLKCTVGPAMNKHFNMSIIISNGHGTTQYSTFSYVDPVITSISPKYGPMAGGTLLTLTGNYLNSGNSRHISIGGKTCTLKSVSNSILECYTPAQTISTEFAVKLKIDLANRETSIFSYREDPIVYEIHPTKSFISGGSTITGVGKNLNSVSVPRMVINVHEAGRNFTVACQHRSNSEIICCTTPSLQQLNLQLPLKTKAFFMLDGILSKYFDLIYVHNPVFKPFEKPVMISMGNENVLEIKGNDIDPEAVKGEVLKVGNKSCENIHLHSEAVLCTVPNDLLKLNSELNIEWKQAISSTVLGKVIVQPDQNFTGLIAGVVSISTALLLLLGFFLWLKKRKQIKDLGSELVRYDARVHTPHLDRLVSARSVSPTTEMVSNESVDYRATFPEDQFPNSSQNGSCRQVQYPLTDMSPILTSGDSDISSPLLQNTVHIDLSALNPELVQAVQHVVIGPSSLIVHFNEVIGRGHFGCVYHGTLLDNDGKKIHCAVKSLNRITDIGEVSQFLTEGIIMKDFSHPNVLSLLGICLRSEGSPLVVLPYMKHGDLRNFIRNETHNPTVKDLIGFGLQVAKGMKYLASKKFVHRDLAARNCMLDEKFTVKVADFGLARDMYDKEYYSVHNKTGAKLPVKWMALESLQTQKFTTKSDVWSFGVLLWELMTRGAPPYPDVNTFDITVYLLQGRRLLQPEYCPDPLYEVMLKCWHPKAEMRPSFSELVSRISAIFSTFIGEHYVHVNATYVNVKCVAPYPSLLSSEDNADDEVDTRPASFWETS
Test name: In vitro kinase assay I (homogeneous time-resolved fluorescence tyrosine kinase assay)
Method: The kinase activities of c-Met are measured using a modified version of the homogeneous-time-resolved tyrosine kinase assay described by Park et al. (1999, Anal. Biochem. 269:94-104). The procedure for determining the potency of a compound to inhibit c-Met kinase comprises the following steps: • 1. […] Read HTRF signals on a Victor reader (PerkinElmer) in HTRF mode after 60-min incubation at room temperature in the dark. • 6. […]
Each record here notes measured IC50.

{"Molecule": "Cn1cc(-n2ccc(=O)c(Cc3ccc4nn(C)cc4c3)n2)cn1 [Example 49]", "IC50": "1000 to 3000 nM"}
{"Molecule": "CCCOC(=O)Nc1cccc(Cc2nn(-c3ccn(C)n3)ccc2=O)c1 [Example 27]", "IC50": "100 to 1000 nM"}
{"Molecule": "O=c1ccn(-c2cc(F)c(F)c(F)c2)nc1Cc1ccc2ncnn2c1 [Example 10]", "IC50": "1000 to 3000 nM"}
{"Molecule": "CCn1cc(-n2ccc(=O)c(Cc3cccc(-c4ncc(OC5CNC5)cn4)c3)n2)cn1 [Example 337]", "IC50": "< 100 nM"}
{"Molecule": "Cn1cc(-n2ccc(=O)c(Cc3cccc(NC(=O)OCC4CCCOC4)c3)n2)cn1 (racemic) [Example 569]", "IC50": "< 100 nM"}
{"Molecule": "CCn1cc(-n2ccc(=O)c(C(C)c3cccc(-c4ncc(OCC5COCCO5)cn4)c3)n2)cn1 (single isomer, unassigned) [Example 299]", "IC50": "< 100 nM"}
{"Molecule": "CCn1cc(-n2ccc(=O)c(C(C)c3cccc(-c4ncc(OCC5CCN(C(=O)OC(C)(C)C)CC5)cn4)c3)n2)cn1 (single isomer, unassigned) [Example 291]", "IC50": "< 100 nM"}
{"Molecule": "CCn1cc(-n2ccc(=O)c(C(C)c3cccc(-c4ncc(OC5COC5)cn4)c3)n2)cn1 (single isomer, unassigned) [Example 214]", "IC50": "< 100 nM"}
{"Molecule": "O=c1ccn(-c2ccc(F)c(F)c2)nc1Cc1cccc(-c2ncc(OCC3CCOC3)cn2)c1 (single isomer, unassigned) [Example 352]", "IC50": "< 100 nM"}
{"Molecule": "Cc1cc(COc2cnc(-c3cccc(Cc4nn(-c5cnn(C)c5)ccc4=O)c3)nc2)no1 [Example 285]", "IC50": "< 100 nM"}
{"Molecule": "Cn1cc(-n2ccc(=O)c(Cc3cccc(NC(=O)OCC4CCCO4)c3)n2)cn1 (racemic) [Example 562]", "IC50": "< 100 nM"}
{"Molecule": "CC(C)(O)COc1cnc(-c2cccc(Cc3nn(-c4ccc(C#N)cc4)ccc3=O)c2)nc1 [Example 372]", "IC50": "< 100 nM"}
{"Molecule": "N#Cc1cccc(-n2ccc(=O)c(Cc3cccc(NC(=O)OCCN4CCOCC4=O)c3)n2)c1 [Example 584]", "IC50": "< 100 nM"}
{"Molecule": "CCn1cc(-n2ccc(=O)c(Cc3cccc(-c4ncn(CC)n4)c3)n2)cn1 [Example 86]", "IC50": "< 100 nM"}
{"Molecule": "CCOC(=O)Nc1cccc(Cc2nn(-c3cnn(CCN)c3)ccc2=O)c1 [Example 647]", "IC50": "100 to 1000 nM"}
{"Molecule": "Cn1cc(-c2cnc(-c3cccc(Cc4nn(-c5ccc(F)c(F)c5)ccc4=O)c3)nc2)cn1 [Example 156]", "IC50": "< 100 nM"}
{"Molecule": "COc1cnc(-c2cccc(Cc3nn(-c4cnn(CC(C)C)c4)ccc3=O)c2)nc1 [Example 95]", "IC50": "< 100 nM"}
{"Molecule": "COc1cnc(-c2cccc(Cc3nn(-c4cncc(C#N)c4)ccc3=O)c2)nc1 [Example 733]", "IC50": "< 100 nM"}

These data points were gathered from patent US20120264735A1.
